- systemUnderTest: mGluR2 receptor (metabotropic glutamate receptor 2) (Homo sapiens, UniProt Q14416)
- Sequence (Q14416 19-872, species assumed): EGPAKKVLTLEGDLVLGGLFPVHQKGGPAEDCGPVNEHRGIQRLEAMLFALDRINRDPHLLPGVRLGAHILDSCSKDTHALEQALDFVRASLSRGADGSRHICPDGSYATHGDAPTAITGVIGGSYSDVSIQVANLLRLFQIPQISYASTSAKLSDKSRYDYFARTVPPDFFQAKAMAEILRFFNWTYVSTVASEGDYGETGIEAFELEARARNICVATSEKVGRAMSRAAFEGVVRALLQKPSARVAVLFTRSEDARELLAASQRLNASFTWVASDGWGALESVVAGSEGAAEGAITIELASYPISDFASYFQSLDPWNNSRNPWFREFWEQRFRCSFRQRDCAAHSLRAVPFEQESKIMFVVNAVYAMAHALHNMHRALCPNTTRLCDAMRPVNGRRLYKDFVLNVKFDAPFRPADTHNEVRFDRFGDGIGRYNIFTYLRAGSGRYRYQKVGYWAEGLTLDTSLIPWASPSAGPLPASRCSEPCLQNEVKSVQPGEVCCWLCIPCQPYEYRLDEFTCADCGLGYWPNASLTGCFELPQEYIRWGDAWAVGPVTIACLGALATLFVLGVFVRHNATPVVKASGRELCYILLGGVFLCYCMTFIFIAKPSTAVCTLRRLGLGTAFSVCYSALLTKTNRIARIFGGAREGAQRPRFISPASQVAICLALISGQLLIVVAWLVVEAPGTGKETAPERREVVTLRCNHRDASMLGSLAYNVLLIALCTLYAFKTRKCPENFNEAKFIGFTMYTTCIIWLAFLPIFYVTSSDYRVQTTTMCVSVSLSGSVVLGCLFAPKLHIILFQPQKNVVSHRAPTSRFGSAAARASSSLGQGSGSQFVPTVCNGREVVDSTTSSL
- assayDetails: mGluR2 potentiator screen (FLIPR, EC10-EC20 glutamate challenge)
- conditionSet: geometric mean; read-out: mGluR 2 EC50 (geometric mean)
pEC50: −log10 of the molar value.
measuredMetric: pEC50

compound	number
CC(C)Oc1ccc(-c2ccc(CN3C[C@@H](C)OC3=O)cn2)c(Cl)c1	6.79
CCC(C)CCOc1ccc(CN2C[C@@H](C)OC2=O)cc1 (stereo partly shown)	7.11
Cc1nc(-c2ccccc2)ncc1COc1ccc(CN2CC(C)OC2=O)cc1 (stereo not shown)	6.92

---

- systemUnderTest: mGluR2 receptor (metabotropic glutamate receptor 2) (Homo sapiens, UniProt Q14416)
- assayDetails: mGluR2 potentiator screen (FLIPR, EC10-EC20 glutamate challenge);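 also: HEK cells stably expressing human mGluR2 with GL15 G protein, Fluo-4 calcium fluorescence read on FLIPR, compounds added before an EC10-EC20 glutamate challenge to detect potentiation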
- conditionSet: geometric mean; read-out: mGluR 2 EC50 (geometric mean)
measuredMetric: EC50 (nM)

Observe how each entry below is paired with its result.
molecule	resultUnit	number
Cc1cc(-c2ccc(CN3C[C@@H](C)OC3=O)cc2)ccc1F	nM	10.6
O=C1OC(c2cccnc2)CN1Cc1ccc(-c2ccc(OC(F)(F)F)cc2F)cc1 (stereo not drawn)	nM	77.7
C[C@@H]1CN(Cc2ccc(-c3ccc4c(c3)OCCCO4)cc2)C(=O)O1	nM	83.7

I: CC1CN(Cc2ccc(OCC3CCC3)cc2)C(=O)O1 (stereo not drawn)
II: C[C@@H]1CN(Cc2ccc(CN3CCc4cc(Cl)ccc43)cc2)C(=O)O1
Lower value for measured EC50? Options: I , II Answer by stating the label of the chosen item. II
(II: 94.5 nM, I: 178 nM)
